Values were extracted from patent US5376679A.

- System: Cladosporium resinae
Consider the following compounds and their measured MIC readings.
Numeric answer only, unit µg/mL assumed.

// below: answered compounds
CC1Oc2c(cccc2[N+]([O-])=NC#N)C1C (centres unmarked) | 25
N#CN=[N+]([O-])c1cccc2c3c(oc12)CCCC3 | 25

Shifting focus to the compound that follows.
// MIC (Cladosporium resinae) for CC1CCc2cccc([N+]([O-])=NC#N)c2O1 (centres unmarked) = 25

---

Consider the following compounds and their measured As: activity against tomato early blight readings.
- Tested on: Alternaria Solani
- assay protocol: Direct protectant activity against tomato early blight (As); note: dose 1000 g/ha
- Type: in vivo
- Parameters: scale not given here
- condition notes: foliar spray as under (a), 8 days; activity grade 1 or 2, not defined

N#CN=[N+]([O-])c1cccc2c3c(oc12)CCCC3 | 1
Cc1oc2c([N+]([O-])=NC#N)cccc2c1C | 2
Cc1cc2cccc([N+]([O-])=NC#N)c2o1 | 2
CC1Cc2cc(Cl)cc([N+]([O-])=NC#N)c2O1 (stereo not drawn) | 1
N#CN=[N+]([O-])c1ccc2oc(=O)ccc2c1 | 2

For reference, reported As: activity against tomato early blight for Cc1ccc([N+]([O-])=NC#N)c2c1CC(C)(C)O2 stands at 1

For reference, reported As: activity against tomato early blight for COC(=O)N=[N+]([O-])c1ccc(C)c2c1OC(C)CC2 (stereo not drawn) stands at 2

For reference, reported As: activity against tomato early blight for Cc1cc2cc([N+]([O-])=NC#N)ccc2o1 stands at 1

---

Saccharomyces cerevisiae data, read-out MIC
Numeric answer only, unit µg/mL assumed.

// below: answered compounds
CC1CCc2cccc([N+]([O-])=NC#N)c2O1 (centres unmarked) | 50
CC1(C)CCc2cc(Cl)cc([N+]([O-])=NC#N)c2O1 | 50

Shifting focus to the compound that follows.
// MIC (Saccharomyces cerevisiae) for N#CN=[N+]([O-])c1ccc2c(c1)C=CCO2 = 25

---

- Test system: Erysiphe graminis f.sp. hordei
- assay protocol: Direct antisporulant activity against barley powdery mildew (Eg)
- Assay type: in vivo
- Set-up: scale not given here
- condition notes: foliar spray, 1 kg/ha; activity grade 1 or 2, not defined
measurement kind: Eg: activity against barley powdery mildew
// return just the number, without any unit appended

For reference, reported Eg: activity against barley powdery mildew for CCC1Cc2cccc([N+]([O-])=NC#N)c2O1 (stereo not shown) stands at 1

---

Consider the following molecules and their measured Ph: activity against wheat eyespot readings.
- Tested on: Pseudocercosporella herpotrichoides
- assay protocol: In vitro activity against wheat eyespot (Ph)
- Type: cell-based
- Design: scale not given here
- condition notes: in vitro, 100 ppm in agar, 11 days; activity grade 1 or 2, not defined
- Protocol: (c) Activity Against Wheat Eyespot (Pseudocercosporella herpotrichoides; Ph) The test is an in vitro one. […] Diametric growth is measured with the width of the plug subtracted and results compared with growth on a sample wherein 0.7 ml acetone containing no active material is dispersed in 20 ml half-strength potato agar.
// return just the number, without any unit appended

// below: answered molecules
COC(=O)N=Nc1cccc2c1OC(C)(C)C2 | 1
CCC1Cc2cccc([N+]([O-])=NC#N)c2O1 (centres unmarked) | 2
COC(=O)N=[N+]([O-])c1cccc2c1OC(C)(C)C2 | 2
CC1(C)C=Cc2cccc([N+]([O-])=NC#N)c2O1 | 2

For reference, reported Ph: activity against wheat eyespot for Cc1ccc([N+]([O-])=NC#N)c2c1CC(C)(C)O2 stands at 2

For reference, reported Ph: activity against wheat eyespot for Cc1cc2c(F)ccc([N+]([O-])=NC#N)c2o1 stands at 2

For reference, reported Ph: activity against wheat eyespot for CCc1cc2cccc([N+]([O-])=NC#N)c2o1 stands at 1

For reference, reported Ph: activity against wheat eyespot for Cc1cc2cccc([N+]([O-])=NC#N)c2o1 stands at 1

---

Cladosporium resinae data, read-out MIC
Numeric answer only, unit µg/mL assumed.

// below: answered compounds
Cc1oc2c([N+]([O-])=NC#N)cccc2c1C | 100
CC1(C)Cc2cc(Cl)cc([N+]([O-])=NC#N)c2O1 | 25
CC1(C)C=Cc2cccc([N+]([O-])=NC#N)c2O1 | 25
N#CN=[N+]([O-])c1cc(Cl)cc2c1OC(CO)C2 (stereo not shown) | 50
Cc1cc2cc([N+]([O-])=NC#N)ccc2o1 | 25

For reference, reported MIC for N#CN=[N+]([O-])c1cc(Cl)cc2c1OC(CCl)C2 (stereo not shown) stands at 25

---

- Tested on: Puccinia Recondita
- assay protocol: Direct protectant activity against wheat brown rust (Pr)
- Type: in vivo
- Set-up: scale not given here
- condition notes: foliar spray, 1 kg/ha, 10 days; activity grade 1 or 2, not defined
- Method: (i) Activity Against Wheat Brown Rust (Puccinia Recondita; Pr) The test is a direct protectant one using a foliar spray. […] The plants are then sprayed with the test compound at a dosage of 1 kg/ha using a track sprayer as described under (a). […] The disease is assessed 10 days after inoculation on the basis of the percentage of the plant covered by sporulating pustules compared with that on the control plants.
Consider the following compounds and their measured Pr: activity against wheat brown rust readings.
// return just the number, without any unit appended

For reference, reported Pr: activity against wheat brown rust for Cc1cc2c(c([N+]([O-])=NC#N)c1)OC(C)(C)C2 stands at 2

---

- System: Podosphaera leucotricha
- assay protocol: Direct antisporulant activity against apple powdery mildew (Pl)
- Format: in vivo
- condition notes: foliar spray, 1 kg/ha; activity grade 1 or 2, not defined
measurement kind: Other: Pl, activity against apple powdery mildew

// below: answered compounds
COC(=O)N=Nc1cccc2c1OC(C)(C)C2 | 1
COCC1Cc2c(Cl)c(C)cc(N=NC(=O)OC)c2O1 (centres unmarked) | 2
CCC1Cc2c(C)ccc(N=NC(=O)OC)c2O1 (centres unmarked) | 1

For reference, reported Other: Pl, activity against apple powdery mildew for COC(=O)N=[N+]([O-])c1cccc2c1OC(C)(C)C2 stands at 1

For reference, reported Other: Pl, activity against apple powdery mildew for C=CCOC(=O)N=Nc1ccc(C)c2c1OC(C)CC2 (centres unmarked) stands at 2

---

Consider the following molecules and their measured Ph: activity against wheat eyespot readings.
- Tested on: Pseudocercosporella herpotrichoides
- assay protocol: In vitro activity against wheat eyespot (Ph)
- Type: cell-based
- Design: scale not given here
- condition notes: in vitro, 100 ppm in agar, 11 days; activity grade 1 or 2, not defined

// below: answered molecules
CC1Cc2cc(Cl)cc([N+]([O-])=NC#N)c2O1 (centres unmarked) [Example 6] | 2
Cc1oc2c([N+]([O-])=NC#N)cccc2c1C [Example 18] | 1
N#CN=[N+]([O-])c1ccc2oc3c(c2c1)CCCC3 [Example 24] | 1
CC1(C)CCc2cc(Cl)cc([N+]([O-])=NC#N)c2O1 [Example 15] | 2
N#CN=[N+]([O-])c1ccc2oc(=O)ccc2c1 [Example 1] | 2

For reference, reported Ph: activity against wheat eyespot for CC1(C)Cc2cccc([N+]([O-])=NC#N)c2O1 [Example 2] stands at 2

For reference, reported Ph: activity against wheat eyespot for N#CN=[N+]([O-])c1cc(Cl)cc2c1OC(CCl)C2 (centres unmarked) [Example 10] stands at 2

For reference, reported Ph: activity against wheat eyespot for CC1(C)Cc2cc(Cl)cc([N+]([O-])=NC#N)c2O1 [Example 4] stands at 2

For reference, reported Ph: activity against wheat eyespot for N#CN=[N+]([O-])c1cc(Cl)cc2c1OCC=C2 [Example 26] stands at 1

For reference, reported Ph: activity against wheat eyespot for CC1Oc2c(cccc2[N+]([O-])=NC#N)C1C (centres unmarked) [Example 9] stands at 2

For reference, reported Ph: activity against wheat eyespot for Cc1cc2c(c([N+]([O-])=NC#N)c1)OC(C)(C)C2 [Example 7] stands at 1

For reference, reported Ph: activity against wheat eyespot for CC1Oc2c(cc(Cl)cc2[N+]([O-])=NC#N)C1C (centres unmarked) [Example 5] stands at 2

For reference, reported Ph: activity against wheat eyespot for CCC1Cc2c(C)ccc(N=NC(=O)OC)c2O1 (centres unmarked) [Example 37] stands at 1

---

- Test system: Desulfovibrio sp.
- assay protocol: Minimum inhibitory concentration, sulphate-reducing bacteria (Dsp)
- Format: cell-based
- condition notes: 30° C., 2, 5 and 10 days
measurement kind: MIC

CCC1Cc2cccc([N+]([O-])=NC#N)c2O1 (stereo not shown) [Example 8] | > 100 µg/mL
CC1(C)C=Cc2cc(F)cc([N+]([O-])=NC#N)c2O1 [Example 29] | > 100 µg/mL
CCCCc1cc2cccc([N+]([O-])=NC#N)c2o1 [Example 20] | > 100 µg/mL
CC1Oc2c(cc(Cl)cc2[N+]([O-])=NC#N)C1C (stereo not shown) [Example 5] | > 100 µg/mL

For reference, reported MIC for CC1(C)CCc2cc(Cl)cc([N+]([O-])=NC#N)c2O1 [Example 15] stands at > 100 µg/mL

For reference, reported MIC for N#CN=[N+]([O-])c1cccc2c1OC(CO)C2 (stereo not shown) [Example 12] stands at 50 µg/mL

For reference, reported MIC for Cc1cc2cccc([N+]([O-])=NC#N)c2o1 [Example 16] stands at 50 to 100 µg/mL

For reference, reported MIC for Cc1oc2c([N+]([O-])=NC#N)cccc2c1C [Example 18] stands at > 100 µg/mL

For reference, reported MIC for CC1(C)Cc2cc(Cl)cc([N+]([O-])=NC#N)c2O1 [Example 4] stands at > 100 µg/mL

For reference, reported MIC for Cc1cc2cc([N+]([O-])=NC#N)ccc2o1 [Example 23] stands at 100 µg/mL

For reference, reported MIC for N#CN=[N+]([O-])c1cccc2c3c(oc12)CCCC3 [Example 17] stands at > 100 µg/mL

For reference, reported MIC for N#CN=[N+]([O-])c1cc(Cl)cc2c1OC(CO)C2 (stereo not shown) [Example 11] stands at 100 µg/mL

For reference, reported MIC for N#CN=[N+]([O-])c1cccc2c1OC(CCl)C2 (stereo not shown) [Example 13] stands at > 100 µg/mL
